Experiment notes: Dynamic surface tension of aqueous solutions, maximum bubble pressure method
Assay type: physicochemical
Condition details: saturated solution made using 1.0 wt % in water, 20 b/s
Doc: threshold 40 dyne/cm (exclusive). Items with γ limiting, 20 b/s beneath it return T; others return F.

Incoming: Report whether reported γ limiting, 20 b/s is lower than 40 dyne/cm (strictly) for CCCCOCC(O)CNCCCCCCN (racemic)
Outgoing: F

Incoming: Report whether reported γ limiting, 20 b/s is lower than 40 dyne/cm (strictly) for CCCCC(CC)COCC(O)CNCCN(CC(O)COCC(CC)CCCC)CC(O)COCC(CC)CCCC (stereo not drawn)
Outgoing: F

Incoming: Report whether reported γ limiting, 20 b/s is lower than 40 dyne/cm (strictly) for CC(C)COCC(O)CN(CCN(CC(O)COCC(C)C)CC(O)COCC(C)C)CC(O)COCC(C)C (stereo not drawn)
Outgoing: F

Incoming: Report whether reported γ limiting, 20 b/s is lower than 40 dyne/cm (strictly) for CCCCOCC(O)CNCCCOCCOCCOCCCN(CC(O)COCCCC)CC(O)COCCCC (stereo not drawn)
Outgoing: T

Incoming: Report whether reported γ limiting, 20 b/s is lower than 40 dyne/cm (strictly) for CCCCOCC(O)CN(CC(O)COCCCC)C1CCC(CC2CCC(N(CC(O)COCCCC)CC(O)COCCCC)CC2)CC1 (stereo not drawn)
Outgoing: F

Incoming: Report whether reported γ limiting, 20 b/s is lower than 40 dyne/cm (strictly) for CC(C)COCC(O)CNCCN(CC(O)COCC(C)C)CC(O)COCC(C)C (stereo not drawn)
Outgoing: T

Incoming: Report whether reported γ limiting, 20 b/s is lower than 40 dyne/cm (strictly) for CCCCC(CC)COCC(O)CNCCN (mixture of isomers)
Outgoing: T

Incoming: Report whether reported γ limiting, 20 b/s is lower than 40 dyne/cm (strictly) for CCCCOCC(O)CN(CCN(CC(O)COCCCC)CC(O)COCCCC)CC(O)COCCCC (stereo not drawn)
Outgoing: F
